Cited source: patent US20080312271A1

Target: mGluR2 receptor (metabotropic glutamate receptor 2) (Homo sapiens)
Construct: expressed in transfected cells
Sequence (Q14416 19-872, species assumed): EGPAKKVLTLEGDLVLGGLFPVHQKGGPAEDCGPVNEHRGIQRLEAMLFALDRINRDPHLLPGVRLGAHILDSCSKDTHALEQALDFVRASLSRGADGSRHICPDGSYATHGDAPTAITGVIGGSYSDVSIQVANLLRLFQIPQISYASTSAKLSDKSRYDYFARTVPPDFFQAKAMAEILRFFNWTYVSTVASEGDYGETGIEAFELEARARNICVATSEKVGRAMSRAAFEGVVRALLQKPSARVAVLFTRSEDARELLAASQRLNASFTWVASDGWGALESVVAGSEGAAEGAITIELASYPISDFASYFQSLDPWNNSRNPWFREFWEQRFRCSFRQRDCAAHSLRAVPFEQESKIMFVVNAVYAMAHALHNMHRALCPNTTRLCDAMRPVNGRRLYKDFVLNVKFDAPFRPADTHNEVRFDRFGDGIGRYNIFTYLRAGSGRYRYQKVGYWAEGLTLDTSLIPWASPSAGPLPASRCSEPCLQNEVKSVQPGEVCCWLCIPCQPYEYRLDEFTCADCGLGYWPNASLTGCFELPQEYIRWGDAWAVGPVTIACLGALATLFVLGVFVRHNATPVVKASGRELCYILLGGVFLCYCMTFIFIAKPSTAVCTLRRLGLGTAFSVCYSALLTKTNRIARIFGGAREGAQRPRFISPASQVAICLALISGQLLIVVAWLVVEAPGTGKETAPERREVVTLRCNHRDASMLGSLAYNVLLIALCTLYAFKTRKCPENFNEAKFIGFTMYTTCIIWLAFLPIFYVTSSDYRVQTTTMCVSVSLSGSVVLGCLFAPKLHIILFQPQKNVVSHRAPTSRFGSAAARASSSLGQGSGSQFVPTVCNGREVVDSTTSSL
Test: mGluR2 Potentiator Screen, FLIPR, EC10-EC20 glutamate challenge
Assay type: cell-based
endpoint name: EC50

Fill in the recorded EC50 for this compound, with mGluR2 receptor (metabotropic glutamate receptor 2) (Homo sapiens) as test system: Cn1c(CN2CCC(c3ccccc3C#N)CC2)nc2ncccc21 [compound 77] > 5700 nM

API: value(readout= EC50, system= mGluR2 receptor (metabotropic glutamate receptor 2) (Homo sapiens), query= C[C@@H]1CN(Cc2nc3ncccc3n2C)CC[C@@H]1c1ccc(Cl)cc1C(F)(F)F (relative stereo) [compound 207] ) 108 nM

Which EC50 is reported with mGluR2 receptor (metabotropic glutamate receptor 2) (Homo sapiens) for this entry: Cn1c(CN2CCC(c3cc(F)cc(F)c3)CC2)nc2ncccc21 [compound 91] ? 985 nM

Item: C[C@@H]1CN(Cc2nc3ncccc3n2C)CC[C@@H]1c1ccc(C(F)(F)F)cc1Cl (relative stereo) [compound 151] Test system: mGluR2 receptor (metabotropic glutamate receptor 2) (Homo sapiens) Read-out: EC50 Value: ? 30 nM

Lab note: need EC50 with mGluR2 receptor (metabotropic glutamate receptor 2) (Homo sapiens) for entry COc1ccccc1[C@]1(C)CCN(Cc2nc3ncccc3n2C)C[C@@H]1C [compound 56] , please look it up. 3820 nM

----------
# EC50 values compiled below
Biological target: mGluR2 receptor (metabotropic glutamate receptor 2) (Homo sapiens)
Construct: expressed in transfected cells
Assay: mGluR2 Potentiator Screen, FLIPR, EC10-EC20 glutamate challenge
Assay type: cell-based
Quick note: give the figure in nM, leave out the unit.

> print(dat)
                                   molecule  endpoint.name  numeric.value
1  C[C@@H]1CN(Cc2nc3ncccc3n2C)CC[C@@H]1c1ccc(Cl)cc1F (single isomer, unassigned) [compound 122]           EC50           28.8
2  CC(C)Oc1ccc([C@H]2CCN(Cc3nc4ncccc4n3C)C[C@H]2C)c(F)c1 (single isomer, unassigned) [compound 217]           EC50           29.8
3      Cn1c(CN2CCC(c3ccccc3F)CC2)nc2ncccc21           EC50           1590

State the recorded EC50 for this entry: C[C@@H]1CN(Cc2nc3ncccc3n2C)CC[C@@H]1c1ccc(Cl)cc1F (relative stereo) [compound 115] 19.5

Reported EC50 for CCCOc1ccc(Cl)cc1C1CCN(Cc2nc3cnccc3n2C)CC1 : what is it? 396

Which EC50 is reported for this molecule? C[C@@H]1CN(Cc2nc3ncccc3n2C)CC[C@@H]1c1ccc(OC(F)(F)F)cc1Cl (relative stereo) 63

Please report the recorded EC50 for C[C@@H]1CN(Cc2nc3ncccc3n2C)CC[C@@H]1c1ccc(Cl)cc1Cl (single isomer, unassigned) [compound 186] . 611

Looking for the measured EC50 of Cc1ccc(C2CCN(Cc3nc4ncccc4n3C)CC2)cc1 , can you help? 710

Form field: reported EC50 of C[C@@H]1CN(Cc2nc3cnccc3n2C)CC[C@@H]1c1ccc(C(F)(F)F)cc1C(F)(F)F (relative stereo) 207

----------
Target: mGluR2 receptor (metabotropic glutamate receptor 2) (Homo sapiens)
Construct: expressed in transfected cells
Assay: mGluR2 Potentiator Screen, FLIPR, EC10-EC20 glutamate challenge
Assay type: cell-based
# EC50 per record follows

Reference set (10 entries):
> print(dat)
                                    compound                               test.system     result
 1  COc1ccc(C(F)(F)F)cc1C1CCN(Cc2nc3ncccc3n2C)CC1  mGluR2 receptor (metabotropic glutamate receptor 2) (Homo sapiens)     211 nM
 2  CC(C)Oc1ccc([C@H]2CCN(Cc3nc4cnccc4n3C)C[C@H]2C)cc1F (relative stereo)  mGluR2 receptor (metabotropic glutamate receptor 2) (Homo sapiens)    1090 nM
 3  Cn1c(CN2CCC(c3c(F)cccc3C(F)(F)F)CC2)nc2cnccc21  mGluR2 receptor (metabotropic glutamate receptor 2) (Homo sapiens)   > 458 nM
 4  C[C@@H]1CN(Cc2nc3cnccc3n2C)CC[C@@H]1c1ccc(OC(F)F)cc1Cl (relative stereo)  mGluR2 receptor (metabotropic glutamate receptor 2) (Homo sapiens)     125 nM
 5  C[C@@H]1CN(Cc2nc3cnccc3n2C)CC[C@@H]1c1ccc(C(F)(F)F)c(F)c1 (relative stereo) [compound 148]  mGluR2 receptor (metabotropic glutamate receptor 2) (Homo sapiens)    71.4 nM
 6  C[C@@H]1CN(Cc2nc3cnccc3n2C)CC[C@@H]1c1ccc(C(F)(F)F)c(F)c1 (single isomer, unassigned) [compound 184]  mGluR2 receptor (metabotropic glutamate receptor 2) (Homo sapiens)  > 2710 nM
 7  COc1ccc([C@H]2CCN(Cc3nc4cnccc4n3C)C[C@H]2C)c(C(F)(F)F)c1 (relative stereo)  mGluR2 receptor (metabotropic glutamate receptor 2) (Homo sapiens)  > 1690 nM
 8  COc1cc(OC(F)(F)F)ccc1[C@H]1CCN(Cc2nc3cnccc3n2C)C[C@H]1C (relative stereo)  mGluR2 receptor (metabotropic glutamate receptor 2) (Homo sapiens)     124 nM
 9  C[C@@H]1CN(Cc2nc3cnccc3n2C)CC[C@@H]1c1cc(F)c(F)cc1F (relative stereo) [compound 180]  mGluR2 receptor (metabotropic glutamate receptor 2) (Homo sapiens)     762 nM
10  COc1cc(C(F)(F)F)ccc1[C@H]1CCN(Cc2nc3cnccc3n2C)C[C@H]1C (single isomer, unassigned) [compound 141]  mGluR2 receptor (metabotropic glutamate receptor 2) (Homo sapiens)    1310 nM

Endpoint output: EC50 of Cn1c(CN2CCC(c3ccccc3C(F)(F)F)CC2)nc2cccnc21 . Value? 406 nM

Return reported EC50; argument: C[C@@H]1CN(Cc2nc3nccc4c3n2CCC4)CC[C@@H]1c1ccc(F)cc1F (relative stereo) 47.1 nM

Which EC50 is listed for Cc1cc(Cl)ccc1[C@H]1CCN(Cc2nc3ncccc3n2C)C[C@H]1C (relative stereo) ? 102 nM

So what's the measured EC50 for this one? Cn1c(CN2CCC(c3ccc(F)cc3F)CC2)nc2cnccc21 218 nM

Bench note: what EC50 did C[C@@H]1CN(Cc2nc3cnccc3n2C)CC[C@@H]1c1ccc(C(F)(F)F)cc1F (single isomer, unassigned) [compound 143] show? 1180 nM
